measurement_kind: melting point

Please review the entries below; each comes with its answer.
Request: Tell us which melting point value is on record for CCc1ccc(COc2cccc3c2CN(C2CCC(=O)NC2=O)C3=O)cc1 (centres undefined)
Result: 158 to 160 °C

Request: Find the measured melting point of `CC1(C)Cc2c(N)c(Cl)cc(C(=O)NC3CCN(CCCNc4nc(O)c5ccccc5n4)CC3)c2O1` and report it.
Result: 160 °C

Request: Write down melting point measured for item `CCN1c2ccccc2N(C(=O)CN(C)C)c2ccccc2S1(=O)=O`
Result: 115 to 116 °C

Request: Return melting point for the following molecule: O=C1c2ccccc2OCC1SC(=O)C(F)(F)F (centres undefined)
Result: 75 to 79 °C

Request: Return melting point for the following molecule: CN(C)c1ccc(NC(=O)N(CC2CCC(CN(C(=O)Nc3ccc(N(C)C)cc3)C3C4CC5CC(C4)CC3C5)CC2)C2C3CC4CC(C3)CC2C4)cc1 (centres undefined)
Result: 182 to 185 °C

Request: Give me measured melting point, please, for this molecule: `N#CCCCCCCc1nc(-c2ccc(Cl)cc2)c(-c2ccc(Cl)cc2)o1`
Result: 64 °C

Request: Quote melting point reported for `Cc1ccc(-c2nc(C(=O)Nc3nnn[nH]3)c(C)s2)s1` please.
Result: 278 to 280 °C

Request: Provide only the value of recorded melting point for `CCCc1cc(Cl)c2oc(C(=O)c3ccc(OC)cc3)c(C)c2c1O`
Result: 103 to 105 °C

Now look at this one.
Request: Give the reported value of melting point for this record: `COc1ncc(-c2cc(C=CC(=O)c3ccc(C(=O)O)cc3)c(OC)cc2OC)c(OC)n1`
Result: 203 to 205 °C

###

measurement_kind: melting point

Sample answers from the record:
Request: Give the reported value of melting point for this record: `Cc1ncnc(N)c1C=O`
Result: 158 to 160 °C

Request: Please supply the value of reported melting point for the item `CCOC(=O)c1sc(CBr)nc1C`
Result: 48 to 58 °C

Request: Give a short answer stating reported melting point for `CCc1scc(C(=O)OC)c1NC(C)=O` .
Result: 85 to 86 °C

Request: Write down melting point measured for item CC(=O)OC1CSC(Oc2cncc(-c3cncnc3)c2)C(OC(C)=O)C1OC(C)=O (stereo not given)
Result: 213 to 217 °C

New cases:
Request: Please supply the value of reported melting point for the item CCOC(=O)Oc1ccc(S(=O)(=O)N2c3cc(F)c(F)c(F)c3-n3cccc3C2CC)cc1 (stereo not given)
Result: 131 to 132 °C

Request: Please give measured melting point of the following entry: O=C1CN(Cc2ccc(COc3cccc4c3CN(C3CCC(=O)NC3=O)C4=O)cc2)CCN1 (stereo not given)
Result: 245 to 247 °C

Request: Supply recorded melting point for `CN1CCN(CCCNc2ncc3cc(-c4c(Cl)cccc4Cl)c(NC(=O)Nc4ccc(C(F)(F)F)cc4)nc3n2)CC1` here.
Result: 146 to 151 °C

###

Recorded measurements of melting point, one per entry

Request: State its melting point: `CCCCCS(=O)(=O)NC(=O)CCc1ccc(OC(C)C)cc1OCc1ccc(Cl)cc1Cl`
Result: 120 °C

Request: Look up melting point of `CCCc1nn(-c2ccc(C(F)(F)F)cn2)cc1CCCOc1c(F)cccc1CC(=O)O` and report it.
Result: 105 to 106 °C

Request: Give the value of melting point reported for the following: CC1OC(n2cc(F)c(NC(=O)c3ccoc3)nc2=O)C(O)C1O (stereo not given)
Result: 173 to 174 °C

Request: Give reported melting point value for `CN(C)C(=O)c1cc(Cl)ccc1N`
Result: 97 to 98 °C

Request: Identify melting point associated with the compound `COC(=O)Nc1ccc(OCc2nc3ccccc3s2)c(Cl)c1`
Result: 133 to 135 °C

Request: State, in one line, measured melting point of `CS(=O)(=O)c1ccc(-c2cnn(-c3cccc(Cl)c3)c(=O)c2CCc2ccccc2)cc1`
Result: 142 to 145 °C

Request: Give me measured melting point, please, for this compound: CC(C)(C)OC(=O)N1c2ccccc2CC1COc1ccc(CC2SC(=O)N(C(c3ccccc3)(c3ccccc3)c3ccccc3)C2=O)cc1 (stereo not given)
Result: 85.4 to 87.2 °C

Request: Check the records and state melting point for `CC(=O)OCCNc1ccc(Cl)cc1C(=O)c1ccccc1F`
Result: 48 to 55 °C

Request: # return recorded melting point for input `Cc1oc(-c2ccc(C(F)(F)F)cc2)nc1-c1ccc(Br)cc1`
Result: 82.8 °C

Request: Supply melting point value. Item: `CCn1cc(OS(C)(=O)=O)c(=O)c2ccccc21`
Result: 141 to 143 °C
